Target: T1, Human recombinant FGF8b (fibroblast growth factor-8b) (human)
T1 chain: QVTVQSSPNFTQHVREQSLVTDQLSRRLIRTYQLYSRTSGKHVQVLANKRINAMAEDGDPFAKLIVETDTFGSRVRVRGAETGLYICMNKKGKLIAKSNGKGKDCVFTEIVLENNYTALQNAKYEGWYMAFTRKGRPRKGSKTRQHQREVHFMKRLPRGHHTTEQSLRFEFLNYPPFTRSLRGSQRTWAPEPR
Assay: SPR
readout.type: Kd

Sample records with Kd:
binder="Ac-ARGCA-NH2 [Ac-ARGCA-NH2]" data_value="> 3000 µM"
binder="Ac-ARPCG-NH2 [Ac-ARPCG-NH2]" data_value="1900 µM"
binder="Ac-APCRA-NH2 [Ac-APCRA-NH2, partially scrambled peptide]" data_value="> 3000 µM"
binder="H-ARPCA-NH2 [H-ARPCA-NH2, non-acetylated peptide]" data_value="2900 µM"
binder="Ac-ARACA-NH2 [Ac-ARACA-NH2]" data_value="> 3000 µM"
binder="Ac-GRPCG-NH2 [Ac-GRPCG-NH2]" data_value="> 3000 µM"

Please turn your attention to the following entry.
Record Ac-ARPMA-NH2 [Ac-ARPMA-NH2] , field Kd: > 3000 µM
